# System: EKVX
# ASSAY_PROCEDURE: NCI tumour cell line growth inhibition, 48 h
The source made the active and inactive calls. Cut-off read from the data, not from the text of the source: active = GI50 up to about 1.1 µM and inactive = higher.
Measured GI50, listed per entry.
ASSAY_READOUT: GI50

[
  {
    "COMPOUND": "O=c1[nH]c2cc(C(F)(F)F)ccc2nc1Cc1ccccc1",
    "RECORDED_VALUE": "> 100 µM (inactive)"
  },
  {
    "COMPOUND": "C=C(C)[C@@H]1CC[C@]2(C(=O)O)CC[C@]3(C)[C@H](CC[C@@H]4[C@@]5(C)CC(=O)C(C)(C)[C@@H]5CC[C@]43C)[C@@H]12",
    "RECORDED_VALUE": "9.35 µM (inactive)"
  },
  {
    "COMPOUND": "COc1cc(C2C(Cl)C(=O)N2n2cnc3ccccc3c2=O)cc(OC)c1OC (stereo not given)",
    "RECORDED_VALUE": "92 µM (inactive)"
  },
  {
    "COMPOUND": "O/N=C1\\CC2(N3CCOCC3)CCC1(c1ccccc1)CC2",
    "RECORDED_VALUE": "> 100 µM (inactive)"
  },
  {
    "COMPOUND": "CSC1(SC)CCCCCCCCCCC1",
    "RECORDED_VALUE": "39 µM (inactive)"
  }
]
